- EXPERIMENTAL PROTOCOL: Selectivity index, ratio of CC50 for African green monkey Vero cells to MIC for Mycobacterium tuberculosis H37Rv ATCC 27294
- Format: toxicity, cell-based
- CONDITION LABEL: read-out: Selectivity Index
QUANTITY NAME: selectivity ratio
# print the numeric value only

>>> df
                                smiles_repr  readout_number
0  Cc1ccc(SCC(=O)c2c(C)[n+]([O-])c3ccccc3[n+]2[O-])cc1              64
1  Cc1c(C(=O)CSc2ccc(F)cc2)[n+]([O-])c2ccccc2[n+]1[O-]             128
2  Cc1c(C(=O)CSc2nc3ccccc3s2)[n+]([O-])c2ccccc2[n+]1[O-]              32
3  Cc1c(C(=O)CSc2nc3ccccc3[nH]2)[n+]([O-])c2ccccc2[n+]1[O-]              16
4  Cc1c(C(=O)CSc2nccs2)[n+]([O-])c2ccccc2[n+]1[O-]              16

# compound "Cc1c(C(=O)CSc2nc3ccccc3o2)[n+]([O-])c2ccccc2[n+]1[O-]" ; its selectivity ratio = 16

###

- EXPERIMENTAL PROTOCOL: Selectivity index, ratio of CC50 for African green monkey Vero cells to MIC for Mycobacterium tuberculosis H37Rv ATCC 27294
- Type: toxicity, cell-based
- CONDITION LABEL: read-out: Selectivity Index
QUANTITY NAME: selectivity ratio
Write no unit; give the number alone.

Example compounds with recorded selectivity ratio:
In [3]: df
Out[3]:
                                smiles_repr  readout_number
0  Cc1c(C(=O)CSc2ccccc2)[n+]([O-])c2ccccc2[n+]1[O-]              32
1  Cc1c(C(=O)CSc2nc[nH]n2)[n+]([O-])c2ccccc2[n+]1[O-]             128

Entry "COc1ccc(SCC(=O)c2c(C)[n+]([O-])c3ccccc3[n+]2[O-])cc1" ; selectivity ratio = 64

###

- EXPERIMENTAL PROTOCOL: Selectivity index, ratio of CC50 for African green monkey Vero cells to MIC for Mycobacterium tuberculosis H37Rv ATCC 27294
- Format: toxicity, cell-based
- CONDITION LABEL: read-out: Selectivity Index
QUANTITY NAME: selectivity ratio

The following compounds have reported results that may help.
>>> print(df.to_string())
                                smiles_repr      quantity_name  result
0  Cc1c(C(=O)CSCCNC(=O)[C@@H](N)Cc2c[nH]c3ccccc23)[n+]([O-])c2ccccc2[n+]1[O-]  selectivity ratio    > 16
1  Cc1c(C(=O)CSCCNC(=O)c2ccc3ccccc3c2)[n+]([O-])c2ccccc2[n+]1[O-]  selectivity ratio    > 16

Consider "COc1ccc(C(=O)NCCSCC(=O)c2c(C)[n+]([O-])c3ccccc3[n+]2[O-])cc1" . Its measured selectivity ratio is > 32

###

// reported selectivity ratio per item
- EXPERIMENTAL PROTOCOL: Selectivity index, ratio of CC50 for African green monkey Vero cells to MIC for Mycobacterium tuberculosis H37Rv ATCC 27294
- Type: toxicity, cell-based
- CONDITION LABEL: read-out: Selectivity Index

For orientation, consider the following solved cases.
>>> print(df.to_string())
                                smiles_repr  result
0  Cc1c(C(=O)CN(C)c2ccc(F)cc2)[n+]([O-])c2ccccc2[n+]1[O-]    > 16
1  Cc1c(C(=O)CSCCNC(=O)c2ccccc2)[n+]([O-])c2ccccc2[n+]1[O-]    > 16
2  Cc1c(C(=O)CSCCNC(=O)c2cccs2)[n+]([O-])c2ccccc2[n+]1[O-]    > 16

Value of selectivity ratio reported for the compound "Cc1c(C(=O)CSCCNC(=O)c2ccc(F)cc2)[n+]([O-])c2ccccc2[n+]1[O-]" is > 128
